- Test system: BT-549
- methodDescription: NCI tumour cell line growth inhibition, 48 h
Calls of active or inactive are those of the source. Rule as the data show it: active = GI50 up to about 1.1 µM and inactive = higher.
Quick list: GI50 per entry.

Known GI50 results, listed for orientation:
- molecule: "OCCCN=C1CCCCC1"
  GI50: "> 100 µM (inactive)"
- molecule: "O=c1c2c(-c3ccccc3)onc2n(-c2ccccc2)c(=O)n1-c1ccccc1"
  GI50: "19.2 µM (inactive)"
- molecule: "CCOC(=O)C1=C(C)NC(=O)NC1c1ccc(N(CCCl)CCCl)cc1Cl (configuration not stated)"
  GI50: "15.5 µM (inactive)"
- molecule: "OCc1ccc2c(c1)CC1(Cc3ccccc3C1)C2"
  GI50: "3.77 µM (inactive)"
- molecule: "Cc1ccc(NC(=O)CC(=O)N2N=C(N3CCCCC3)CC2c2ccccc2)cc1 (configuration not stated)"
  GI50: "> 100 µM (inactive)"

Asked: Kindly state the measured GI50 obtained for CC[C@H](C)[C@H]1NC(=O)[C@@H](NC(=O)[C@@H](CC(C)C)N(C)CC2CCCN2C(=O)C(C)=O)[C@@H](C)OC(=O)[C@H](Cc2ccc(OC)cc2)N(C)C(=O)C2CCCN2C(=O)[C@H](CC(C)C)NC(=O)[C@@H](C)C(=O)[C@H](C(C)C)OC(=O)C[C@@H]1O (some centres not stated) with BT-549.
Given back: 0.0047 µM (active)

Asked: Kindly state the measured GI50 obtained for N#CC(NNC(=O)Cc1ccccc1)c1ccccc1O (configuration not stated) with BT-549.
Given back: 21 µM (inactive)

Asked: Kindly state the measured GI50 obtained for COc1ccc2c(C)cc(N/N=C/c3sccc3C)nc2c1 with BT-549.
Given back: 13.1 µM (inactive)

Asked: Kindly state the measured GI50 obtained for COc1ccc(C2=Nc3c(nc(OC)[nH]c3=O)NC(c3ccccc3)C2)cc1 (configuration not stated) with BT-549.
Given back: 31 µM (inactive)

Asked: Kindly state the measured GI50 obtained for CC[S+]([O-])c1c2cc(OC)ccc2nc2ccc(OC)cc12 (configuration not stated) with BT-549.
Given back: 17.5 µM (inactive)

Asked: Kindly state the measured GI50 obtained for NC(CCC(=O)c1ccccn1)C(=O)O (configuration not stated) with BT-549.
Given back: > 100 µM (inactive)

Asked: Kindly state the measured GI50 obtained for CCCCCCCC(CC(=O)NC(CO)C(=O)NC(CO)CC(C)C)OC(=O)CC(CCCCCCC)OC(=O)CC(CCCCCCC)OC1OC(C)C(O)C(OC2OC(C)C(O)C(O)C2OC(C)=O)C1O (configuration not stated) with BT-549.
Given back: 12.5 µM (inactive)

---

- Test system: SF-295
- methodDescription: NCI tumour cell line growth inhibition, 48 h
The source made the active and inactive calls. Rule as the data show it: active = GI50 up to about 1.1 µM and inactive = higher.
assayEndpoint: GI50

Asked: Tell me the measured GI50 of CC(C)(C)c1ccc(-c2nc3ccc(Cl)cc3c(=O)o2)cc1 , please.
Given back: 13 µM (inactive)

---

Quick list: GI50 per entry.
- Tested on: ACHN
- methodDescription: NCI tumour cell line growth inhibition, 48 h
Activity calls are given as the source filed them. Cut-off read from the data, not from the text of the source: active = GI50 up to about 1.1 µM and inactive = higher.

Known GI50 results, listed for orientation:
- smilesData: "Cc1ccc(-c2nc(-c3nccc4ccccc34)oc2-c2ccccc2)cc1"
  assayEndpoint: "GI50"
  result: "92.9 µM (inactive)"
- smilesData: "COc1ccc([C@@H]2CC(=O)NCCCCNCCCN2)cc1"
  assayEndpoint: "GI50"
  result: "> 100 µM (inactive)"

Attention now shifts to the item below.
Asked: Tell me the measured GI50 of O=C(NNC(=S)NCc1ccccc1)C12CC3CC(CC(C3)C1)C2 , please.
Given back: 54.7 µM (inactive)

---

- System: TK-10
- methodDescription: NCI tumour cell line growth inhibition, 48 h
The source made the active and inactive calls. Cut-off read from the data, not from the text of the source: active = GI50 up to about 1.1 µM and inactive = higher.
assayEndpoint: GI50

Known GI50 results, listed for orientation:
- compound: "CCOC(=O)NC(=O)c1cn(CCSCCOC(=O)NCCCCCCNC(=O)OCCSCCn2cc(C(=O)NC(=O)OCC)c(=O)[nH]c2=O)c(=O)[nH]c1=O"
  result: "> 100 µM (inactive)"
- compound: "Cc1cc(=O)oc2c(CNC(Cc3ccccc3)C(=O)O)c(O)ccc12 (configuration not stated)"
  result: "> 100 µM (inactive)"
- compound: "O=c1c2ccccc2nc2n1NC(c1c(Cl)cccc1Cl)N2c1cccc(Cl)c1 (configuration not stated)"
  result: "7.69 µM (inactive)"
- compound: "CCOc1ccc2c(c1)C(/C(C(Cl)=C(Cl)Cl)=[N+](/[O-])OC(=O)c1ccccc1)=N2"
  result: "99.3 µM (inactive)"

Asked: Kindly state the measured GI50 obtained for CCOC(=O)c1nc2cc(C(F)(F)F)ccc2nc1Oc1ccc(F)cc1 with TK-10.
Given back: > 100 µM (inactive)

Asked: Kindly state the measured GI50 obtained for CCCCCN(CCCCC)C(=O)[C@H](CCC(=O)O)NC(=O)c1cc2ccccc2[nH]1 with TK-10.
Given back: > 100 µM (inactive)

---

Entries with reported GI50 on HCT-15

Known GI50 results, listed for orientation:
- molecule: "COC(=O)C[C@H]1CCC2(OCCO2)[C@]1(C)C(=O)OC"
  assayEndpoint: "GI50"
  result: "> 100 µM"
- molecule: "CCCCCCCCCCCCCC(=O)OCC1OC(n2cc(F)c(=O)[nH]c2=O)C(N)C(OC(=O)CCCCCCCCCCCCC)C1O (stereo not drawn)"
  assayEndpoint: "GI50"
  result: "> 100 µM"

Attention now shifts to the item below.
Asked: Kindly state the measured GI50 obtained for CSC1(Cc2ccccn2)C(=O)Nc2cccc([N+](=O)[O-])c21 (stereo not drawn) with HCT-15.
Given back: > 100 µM

---

- Tested on: NCI-H23
- methodDescription: NCI tumour cell line growth inhibition, 48 h
Calls of active or inactive are those of the source. Cut-off read from the data, not from the text of the source: active = GI50 up to about 1.1 µM and inactive = higher.
assayEndpoint: GI50

Known GI50 results, listed for orientation:
- compound: "Cc1ccc(NC(S)=Nc2c(C)n(C)n(-c3ccccc3)c2=O)cc1"
  testTarget: "NCI-H23"
  result: "> 100 µM (inactive)"
- compound: "COC(=O)[C@@H](C)[C@H]1CC[C@@](C)(CCC2=C(C)CC3C=C(C)CCC3C2(C)C)OO1 (stereo partly specified)"
  testTarget: "NCI-H23"
  result: "1.7 µM (inactive)"
- compound: "Cc1c(Cl)cccc1NC(=O)/C=C/c1ccccc1"
  testTarget: "NCI-H23"
  result: "> 100 µM (inactive)"
- compound: "COc1ccc(CNc2cc(OC)cc(OC)c2)cc1"
  testTarget: "NCI-H23"
  result: "> 80.2 µM (inactive)"
- compound: "C=C(Br)C[N+]12CN3CN(CN(C3)C1)C2"
  testTarget: "NCI-H23"
  result: "> 100 µM (inactive)"

Asked: Kindly state the measured GI50 obtained for O=C1c2ccccc2C(O)(O)C1(O)C1(O)C(=O)c2ccccc2C1(O)O (stereo unspecified) with NCI-H23.
Given back: 20.8 µM (inactive)

Asked: Kindly state the measured GI50 obtained for CCCCCCCC(=O)OC[n+]1ccc(-c2c(COC(=O)NC(C)C)c(COC(=O)NC(C)C)c3n2CCC3)cc1 with NCI-H23.
Given back: 35.2 µM (inactive)

---

Quick list: GI50 per entry.
- System: SF-539
- methodDescription: NCI tumour cell line growth inhibition, 48 h
Calls of active or inactive are those of the source. No stated cut-off is given here; in the data, active = GI50 up to about 1.1 µM and inactive = higher.

- molecule: "CN1C(=O)C2CCC(=O)N2c2cccnc21 (stereo unspecified)"
  GI50: "> 100 µM (inactive)"
- molecule: "CC1CC(NN(C)C)C2(C(N)=O)C(N)=NC(=O)C12C#N (stereo unspecified)"
  GI50: "> 100 µM (inactive)"
- molecule: "CCOC(=O)C1CCC(=O)N1C(=O)c1ccccc1 (stereo unspecified)"
  GI50: "> 100 µM (inactive)"
- molecule: "CO[C@@H]1O[C@H](C(=O)c2ccccc2)[C@H]2OC(C)(C)O[C@@H]12"
  GI50: "> 100 µM (inactive)"
- molecule: "CC(C)N(/C(F)=N\\C(=O)Nc1ccccc1C(F)(F)F)C(C)C"
  GI50: "92 µM (inactive)"

Attention now shifts to the item below.
Asked: Tell me the measured GI50 of CN(C)CCNC1=CC(=O)c2c(O)ccc(O)c2C1=O , please.
Given back: 7.1 µM (inactive)

---

Quick list: GI50 per entry.
- System: TK-10
- methodDescription: NCI tumour cell line growth inhibition, 48 h
Active and inactive are the calls of the source. No stated cut-off is given here; in the data, active = GI50 up to about 1.1 µM and inactive = higher.

Known GI50 results, listed for orientation:
- smilesData: "CC(C)(C)c1ccc(-c2nc3ccc(Cl)cc3c(=O)o2)cc1"
  GI50: "41.3 µM (inactive)"
- smilesData: "O=C(/C=C/c1ccccc1O)c1ccccc1O"
  GI50: "> 100 µM (inactive)"
- smilesData: "CN(COC(=O)c1ccccc1)c1nc(N(C)COC(=O)c2ccccc2)nc(N(C)COC(=O)c2ccccc2)n1"
  GI50: "20.3 µM (inactive)"

Asked: Kindly state the measured GI50 obtained for Cc1cc(C)c([S@@](=O)O[C@@H]2[C@H]3OC(C)(C)O[C@H]3O[C@@H]2[C@H]2COC(C)(C)O2)c(C)c1 with TK-10.
Given back: 25.5 µM (inactive)
